The reported measurements were obtained from patent US20240016781A1.

# Test system: HPAF-II
# EXPERIMENTAL_PROTOCOL: 72-hour CellTiter-Glo 2.0 growth inhibition screen (single agent, 9x9 combination dose matrix)
# Assay type: cell-based
# SETUP_CONDITIONS: HPAF-II, Pancreas; Additional Single Agent Responses (inhibition, % I), 72 h
VALUE_TYPE: Response Area
Just the number.

STRUCTURE_AS_SMILES | Response Area
CN1CCN(c2ccc(OC(F)(F)F)c(Nc3ncc4c(n3)-c3c(c(C(N)=O)nn3CCO)CC4)c2)CC1 | 2.97
CC[C@@H]1C(=O)N(C)c2cnc(Nc3ccc(C(=O)N[C@H]4CC[C@H](N5CCN(CC6CC6)CC5)CC4)cc3OC)nc2N1C(C)C | 3.45
C=CC(=O)N1CCN(c2nc(=O)n(-c3c(C)ccnc3C(C)C)c3nc(-c4c(O)cccc4F)c(F)cc23)[C@@H](C)C1 | 0.32

Proceeding to the next compound to report its Response Area.
Ask | Look up Response Area for this compound: CN1CC[C@@H](c2c(O)cc(O)c3c(=O)cc(-c4ccc(C(F)(F)F)cc4Cl)oc23)[C@@H]1CO
Reply | 2.09

###

# EXPERIMENTAL_PROTOCOL: PK of voruciclib, daily dosing continuously (Table 4)
# Assay type: in vivo
# SETUP_CONDITIONS: human, plasma, oral, 350 mg, Day 1, daily dosing continuously, mean
# Excerpt: Voruciclib half life is designated as t½ in the tables (expressed in hours). Voruciclib volume of distribution is designated as Vz/F (expressed in liters).
VALUE_TYPE: AUC(0-inf) (µg·h/mL)
Report the value in µg·h/mL with no unit label.

Ask | Bench note: what AUC(0-inf) did CN1CC[C@@H](c2c(O)cc(O)c3c(=O)cc(-c4ccc(C(F)(F)F)cc4Cl)oc23)[C@@H]1CO show?
Reply | 134

###

# EXPERIMENTAL_PROTOCOL: PK of voruciclib, 2 weeks of daily dosing followed by 1 week without dosing in a 21-day cycle (Table 3)
# Format: in vivo, human
# SETUP_CONDITIONS: human, plasma, oral, 300 mg, Day 13, 2 weeks daily dosing/1 week off, mean; read-out: AUC0-24
VALUE_TYPE: AUC(0-t)

Ask | Given the molecule CN1CC[C@@H](c2c(O)cc(O)c3c(=O)cc(-c4ccc(C(F)(F)F)cc4Cl)oc23)[C@@H]1CO , what is its reported AUC(0-t)?
Reply | 40400 ng·h/mL

###

# EXPERIMENTAL_PROTOCOL: PK of voruciclib, daily dosing continuously (Table 4)
# Format: in vivo
# SETUP_CONDITIONS: human, plasma, oral, 250 mg, Day 15, daily dosing continuously, mean; read-out: AUC0-24
VALUE_TYPE: AUC(0-t) (ng·h/mL)
Write it as a number; the unit ng·h/mL goes unstated.

Ask | Requested read-out: AUC(0-t). Entry: CN1CC[C@@H](c2c(O)cc(O)c3c(=O)cc(-c4ccc(C(F)(F)F)cc4Cl)oc23)[C@@H]1CO
Reply | 18500

###

# EXPERIMENTAL_PROTOCOL: PK of voruciclib, daily dosing continuously (Table 4)
# Type: in vivo
# SETUP_CONDITIONS: human, plasma, oral, 150 mg, Day 1, daily dosing continuously, mean; read-out: AUC0-24
VALUE_TYPE: AUC(0-t) (ng·h/mL)
Only the number, expressed in ng·h/mL, is required.

Ask | # AUC(0-t) lookup, item CN1CC[C@@H](c2c(O)cc(O)c3c(=O)cc(-c4ccc(C(F)(F)F)cc4Cl)oc23)[C@@H]1CO
Reply | 4850

###

# Tested on: Gp2D
# EXPERIMENTAL_PROTOCOL: 72-hour CellTiter-Glo 2.0 growth inhibition screen (single agent, 9x9 combination dose matrix)
# Format: cell-based
# SETUP_CONDITIONS: GP2d, 72 h, Colorectal; Additional Single Agent Responses (inhibition, % I)
Recorded EC50 values for a group of molecules are listed next.
Answer with a number only, understood to be in nM.

// worked examples, EC50 included
STRUCTURE_AS_SMILES | TARGET_DESC | UNIT_NAME | EC50
CN1CCN(c2ccc(OC(F)(F)F)c(Nc3ncc4c(n3)-c3c(c(C(N)=O)nn3CCO)CC4)c2)CC1 | Gp2D | nM | 23.8
C=CC(=O)N1CCN(c2nc(=O)n(-c3c(C)ccnc3C(C)C)c3nc(-c4c(O)cccc4F)c(F)cc23)[C@@H](C)C1 | Gp2D | nM | 2560

Consider now this further molecule.
Ask | Given the entry CC[C@@H]1C(=O)N(C)c2cnc(Nc3ccc(C(=O)N[C@H]4CC[C@H](N5CCN(CC6CC6)CC5)CC4)cc3OC)nc2N1C(C)C , report its measured EC50.
Reply | 2.1

###

# EXPERIMENTAL_PROTOCOL: PK of voruciclib, daily dosing continuously (Table 4)
# Assay type: in vivo
# SETUP_CONDITIONS: human, plasma, oral, 150 mg, Day 1, daily dosing continuously, mean; read-out: t½ (converted)
VALUE_TYPE: half-life (h)
Give the number; h is assumed, so skip it.

Ask | Tell me the measured half-life of CN1CC[C@@H](c2c(O)cc(O)c3c(=O)cc(-c4ccc(C(F)(F)F)cc4Cl)oc23)[C@@H]1CO , please.
Reply | 39.6

###

# EXPERIMENTAL_PROTOCOL: PK of voruciclib, 2 weeks of daily dosing followed by 1 week without dosing in a 21-day cycle (Table 3)
# Type: in vivo, human
# SETUP_CONDITIONS: human, plasma, oral, 150 mg, Day 13, 2 weeks daily dosing/1 week off, median
VALUE_TYPE: Tmax (h)
Give the number; h is assumed, so skip it.

Ask | State the recorded Tmax for this entry: CN1CC[C@@H](c2c(O)cc(O)c3c(=O)cc(-c4ccc(C(F)(F)F)cc4Cl)oc23)[C@@H]1CO [Voruciclib]
Reply | 4

###

# EXPERIMENTAL_PROTOCOL: PK of voruciclib, 2 weeks of daily dosing followed by 1 week without dosing in a 21-day cycle (Table 3)
# Type: in vivo, human
# SETUP_CONDITIONS: human, plasma, oral, 300 mg, Day 1, 2 weeks daily dosing/1 week off, median
VALUE_TYPE: Tmax (h)
Give just the number in h; leave the unit off.

Ask | Return reported Tmax; argument: CN1CC[C@@H](c2c(O)cc(O)c3c(=O)cc(-c4ccc(C(F)(F)F)cc4Cl)oc23)[C@@H]1CO
Reply | 6

###

# EXPERIMENTAL_PROTOCOL: PK of voruciclib, 2 weeks of daily dosing followed by 1 week without dosing in a 21-day cycle (Table 3)
# Format: in vivo, human
# SETUP_CONDITIONS: human, plasma, oral, 150 mg, Day 13, 2 weeks daily dosing/1 week off, mean
VALUE_TYPE: Cmax (ng/mL)
// note: answer is a bare numeric in ng/mL

Ask | Form field: reported Cmax of CN1CC[C@@H](c2c(O)cc(O)c3c(=O)cc(-c4ccc(C(F)(F)F)cc4Cl)oc23)[C@@H]1CO
Reply | 896

###

# System: SW837
# EXPERIMENTAL_PROTOCOL: 72-hour CellTiter-Glo 2.0 growth inhibition screen (single agent, 9x9 combination dose matrix)
# Type: cell-based
# SETUP_CONDITIONS: Homo sapiens; SW837, Colorectal; Additional Single Agent Responses (inhibition, % I), 72 h
The reader will find reported IC50 values listed item by item below.
# output: bare number, implied unit nM

Ask | Consider the molecule shown here: CC[C@@H]1C(=O)N(C)c2cnc(Nc3ccc(C(=O)N[C@H]4CC[C@H](N5CCN(CC6CC6)CC5)CC4)cc3OC)nc2N1C(C)C [Volasertib] What is its recorded IC50?
Reply | 21

Ask | Return reported IC50; argument: CN1CCN(c2ccc(OC(F)(F)F)c(Nc3ncc4c(n3)-c3c(c(C(N)=O)nn3CCO)CC4)c2)CC1 [Onvansertib]
Reply | 53.4

###

# Tested on: NCI-H358
# EXPERIMENTAL_PROTOCOL: 72-hour CellTiter-Glo 2.0 growth inhibition screen (single agent, 9x9 combination dose matrix)
# Type: cell-based
# SETUP_CONDITIONS: NCl-H358, Lung; growth inhibition (GI), AUC, single agent, 72 h
Listing of entries alongside the reported Response Area.
Just the number.

STRUCTURE_AS_SMILES | Response Area
CC[C@@H]1C(=O)N(C)c2cnc(Nc3ccc(C(=O)N[C@H]4CC[C@H](N5CCN(CC6CC6)CC5)CC4)cc3OC)nc2N1C(C)C | 4.57
CN1CC[C@@H](c2c(O)cc(O)c3c(=O)cc(-c4ccc(C(F)(F)F)cc4Cl)oc23)[C@@H]1CO | 3.61
C=C(F)C(=O)N1CCN(c2nc(OC[C@@H]3CCCN3C)nc3c2CCN(c2cccc4cccc(Cl)c24)C3)C[C@@H]1CC#N | 5.85

Ask | Item C=CC(=O)N1CCN(c2nc(=O)n(-c3c(C)ccnc3C(C)C)c3nc(-c4c(O)cccc4F)c(F)cc23)[C@@H](C)C1 has what recorded Response Area?
Reply | 5.18

Ask | # Response Area lookup, item CN1CCN(c2ccc(OC(F)(F)F)c(Nc3ncc4c(n3)-c3c(c(C(N)=O)nn3CCO)CC4)c2)CC1
Reply | 4.69
